Origin of values: paper PMC7156736

Assay: plasma pharmacokinetics in patients (HPLC–MS/MS, non-compartmental analysis)
Format: in vivo, human
Assay Context: human, plasma, oral, Dose-level 3: dacomitinib 15 mg QD + PD-0325901 4 mg BID; Cycle 2 Day 1; n = 2; read-out: tmax dacomitinib, mean
Reported Endpoint: Tmax

Tmax for COc1cc2ncnc(Nc3ccc(F)c(Cl)c3)c2cc1NC(=O)/C=C/CN1CCCCC1 ?
2 h

====

Assay: plasma pharmacokinetics in patients (HPLC–MS/MS, non-compartmental analysis)
Format: in vivo, human
Assay Context: human, plasma, oral, 30 mg, All 30 mg doses; Cycle 1 Day 1; n = 17; read-out: Cmax dacomitinib, mean (CV%)
Reported Endpoint: Cmax

Cmax for COc1cc2ncnc(Nc3ccc(F)c(Cl)c3)c2cc1NC(=O)/C=C/CN1CCCCC1 ?
16 ng/mL

====

Assay: plasma pharmacokinetics in patients (HPLC–MS/MS, non-compartmental analysis)
Format: in vivo, human
Assay Context: human, plasma, oral, Dose-level 6: dacomitinib 30 mg (4/3) QD + PD-0325901 6 mg BID; last day of concomitant use of both drugs; n = 1; read-out: Cmax dacomitinib, mean (CV%)
Reported Endpoint: Cmax (ng/mL)
Enter your answer as a number in ng/mL; do not include the unit.

Cmax for COc1cc2ncnc(Nc3ccc(F)c(Cl)c3)c2cc1NC(=O)/C=C/CN1CCCCC1 ?
32

====

Assay: plasma pharmacokinetics in patients (HPLC–MS/MS, non-compartmental analysis)
Assay type: in vivo, human
Assay Context: human, plasma, oral, Dose-level 8: dacomitinib 30 mg (5/2) QD + PD-0325901 5 mg (5/2) BID; last day of concomitant use of both drugs; n=2; read-out: Cmax PD-0325901, mean (CV%)
Reported Endpoint: Cmax (ng/mL)
Enter your answer as a number in ng/mL; do not include the unit.

Cmax for O=C(NOC[C@H](O)CO)c1ccc(F)c(F)c1Nc1ccc(I)cc1F ?
155

====

Assay: plasma pharmacokinetics in patients (HPLC–MS/MS, non-compartmental analysis)
Type: in vivo, human
Assay Context: human, plasma, oral, Dose-level 1: dacomitinib 30 mg QD + PD-0325901 2 mg BID; Cycle 1 Day 1; n = 6; read-out: tmax dacomitinib, mean
Reported Endpoint: Tmax (h)
Enter your answer as a number in h; do not include the unit.

Tmax for COc1cc2ncnc(Nc3ccc(F)c(Cl)c3)c2cc1NC(=O)/C=C/CN1CCCCC1 ?
7.5

====

Assay: plasma pharmacokinetics in patients (HPLC–MS/MS, non-compartmental analysis)
Format: in vivo, human
Assay Context: human, plasma, oral, Dose-level 5: dacomitinib 15 mg QD + PD-0325901 6 mg BID; Cycle 1 Day 1; n = 8; read-out: tmax dacomitinib, mean
Reported Endpoint: Tmax

Tmax for COc1cc2ncnc(Nc3ccc(F)c(Cl)c3)c2cc1NC(=O)/C=C/CN1CCCCC1 ?
7.9 h

====

Assay: plasma pharmacokinetics in patients (HPLC–MS/MS, non-compartmental analysis)
Type: in vivo, human
Assay Context: human, plasma, oral, Dose-level 6: dacomitinib 30 mg (4/3) QD + PD-0325901 6 mg BID; Cycle 1 Day 1; n = 3; read-out: AUC0-24h dacomitinib, mean (CV%)
Reported Endpoint: AUC(0-t) (ng·h/mL)
Enter your answer as a number in ng·h/mL; do not include the unit.

AUC(0-t) for COc1cc2ncnc(Nc3ccc(F)c(Cl)c3)c2cc1NC(=O)/C=C/CN1CCCCC1 ?
159
